Cited source for all entries: patent US20120220581A1

studyTarget: Rat recombinant PDE10A (rPDE10A2) (Rattus norvegicus, UniProt Q9QYJ6)
Construct: inferred from the Ni metal chelate purification; made in house; host or cells: Sf9 insect cells (baculovirus)
Sequence (Q9QYJ6 whole entry): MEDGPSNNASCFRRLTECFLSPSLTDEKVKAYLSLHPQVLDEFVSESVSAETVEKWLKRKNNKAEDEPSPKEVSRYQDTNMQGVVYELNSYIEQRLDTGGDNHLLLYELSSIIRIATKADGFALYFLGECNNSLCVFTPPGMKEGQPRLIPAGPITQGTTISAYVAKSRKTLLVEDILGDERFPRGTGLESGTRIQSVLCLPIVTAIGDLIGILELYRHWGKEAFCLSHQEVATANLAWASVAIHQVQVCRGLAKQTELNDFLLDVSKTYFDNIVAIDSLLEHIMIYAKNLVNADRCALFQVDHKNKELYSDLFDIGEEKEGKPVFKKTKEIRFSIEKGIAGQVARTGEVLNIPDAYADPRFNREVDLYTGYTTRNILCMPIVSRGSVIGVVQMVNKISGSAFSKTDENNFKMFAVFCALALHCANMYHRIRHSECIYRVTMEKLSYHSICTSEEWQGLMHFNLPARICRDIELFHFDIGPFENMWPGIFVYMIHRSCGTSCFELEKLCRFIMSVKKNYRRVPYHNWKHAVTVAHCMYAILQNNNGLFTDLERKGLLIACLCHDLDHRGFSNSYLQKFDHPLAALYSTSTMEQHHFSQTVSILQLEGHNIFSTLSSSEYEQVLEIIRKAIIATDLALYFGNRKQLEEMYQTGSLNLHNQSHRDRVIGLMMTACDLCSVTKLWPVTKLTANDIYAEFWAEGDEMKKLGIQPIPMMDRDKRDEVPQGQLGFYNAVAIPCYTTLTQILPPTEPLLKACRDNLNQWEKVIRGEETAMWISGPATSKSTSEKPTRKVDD
measurementDescription: In vitro assay PDE10A (SPA, 3H-cAMP)
Format: biochemical
conditionSet: pIC50 corresponds to the −log IC50 expressed in mol/L; read-out: PDE10A2 pIC50 (converted)
quantityName: IC50 (µM)

molSmiles | unitAnnotation | quantitativeReadout
COCCOc1ccc(-c2c(C)nc3c(N4CCOCC4)cc(C)nn23)cn1 | µM | 0.324
Cc1nc2c(-c3ccncc3)cc(C3CC3)nn2c1-c1ccc(N2CCNCC2)nc1 | µM | 0.302
COCCn1cc(-c2c(C)nc3c(-c4ccncc4)cc(Cl)nn23)cn1 | µM | 0.0676

A = c1cc(N2CCOCC2)c2nc(C3CC3)c(-c3ccc(N4CCNCC4)nc3)n2n1
B = Cc1nc2c(N3CCOCC3)ccnn2c1-c1cnn(CC(F)(F)F)c1
Q: Please indicate which entry, A or B , has the lower recorded IC50 value. Give the label under which the chosen entry appears.
A: B
(B: 0.0257 µM, A: 0.11 µM)
